# Test system: DU-145
# Measurement Description: NCI60 five-dose screen
# Type: cell-based
# Condition Description: Homo sapiens; DU-145, prostate cancer; read-out: LC50 (the source's name)
Reported CC50 by item:
Could you give me the number in µM? Just the number is fine.

Worked examples follow.
Prompt: Please list CC50 recorded for the compound O=C(N/N=C/c1cc[nH]c1)c1[nH]c2ccc(Br)cc2c1-c1ccccc1
Response: 34.7

Prompt: Please list CC50 recorded for the compound Cc1cc(C)c(/C=N/NC(=O)c2[nH]c3ccc(Br)cc3c2-c2ccccc2)[nH]1
Response: 38.9

Continuing:
Prompt: Please list CC50 recorded for the compound CCc1ccc(/C=N/NC(=O)c2[nH]c3ccc(Br)cc3c2-c2ccccc2)[nH]1
Response: 36.7

Prompt: Please list CC50 recorded for the compound CCOC(=O)c1ccc(/C=N/NC(=O)c2[nH]c3ccc(Br)cc3c2-c2ccccc2)[nH]1
Response: 38.7

Prompt: Please list CC50 recorded for the compound CCc1c[nH]c(/C=N/NC(=O)c2[nH]c3ccc(Br)cc3c2-c2ccccc2)c1
Response: 39.5
